ASSAY SUMMARY: H69AR viability gain despite doxorubicin, primary screen, MRP-1 activator project, H69AR cells, CellTiter-Glo (AID 799);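 note: MRP-1 overexpressing cells given doxorubicin 25 µM after compound pretreatment; 18-22 h compound pretreatment then 72 h with doxorubicin before readout; 0% = doxorubicin-only wells and 100% = vehicle-treated cells without doxorubicin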
CONDITION PARAMETERS: viability rescue, at 10 µM, hits give high values
The whole screen tested about 140,000 compounds, of which about 840 (0.6%) were called active. Shown is part of a subset that was picked to be rich in actives.
Kindly supply the reported viability increase values for the records listed here.
Answers are plain numbers, in %.

| COMPOUND | RESULT NUMBER |
| --- | --- |
| O=C(NCc1ccco1)C1CCCN(S(=O)(=O)c2cnc[nH]2)C1 (stereo unspecified) | -1.18 |
| Cn1cc(C(=O)NCc2ccccc2F)cn1 | -0.72 |
| COc1cc2c(cc1/C=C1/NC(=O)N(c3ccccc3)C1=O)OCO2 | 0.58 |

Provide reported viability increase for each item, in the same order as listed.
1. N/C(=N\OC(=O)N1c2ccccc2Sc2ccccc21)c1ccc(Br)cc1
2. CC(C)COP(=O)(c1ccc(N(C)C)cc1)C(Nc1ccccc1)c1cccnc1 (stereo unspecified)

Result block:
1: -2.4; 2: -3.48

Provide reported viability increase for each item, in the same order as listed.
1. Cc1ccc(O)c(-c2cc(C(=O)NCc3ccccc3)[nH]n2)c1
2. Cc1cc(NS(=O)(=O)c2ccc(NC(=S)NC(=O)c3ccc(F)cc3Cl)cc2)no1
3. CCc1nnc(NS(=O)(=O)c2ccc(NS(=O)(=O)c3ccccc3)cc2)s1
4. COc1ccc2nc(Nc3nc4ccc(NC(C)=O)cc4s3)sc2c1
5. Oc1c(C(c2cccs2)N2CCN(c3ccc(F)cc3)CC2)sc2ncnn12 (stereo unspecified)
6. Oc1c(C(c2ccco2)N2CCC3(CC2)OCCO3)sc2ncnn12 (stereo unspecified)

Result block:
-1.43
-2
-0.5
-4.94
10.6
0.05

Provide reported viability increase for each item, in the same order as listed.
1. COc1cccc(/C(C)=N/Nc2ncc(Cl)cc2Cl)c1
2. CC(C)c1nnc(NC(=O)C2CCCN2S(=O)(=O)c2ccc(Cl)cc2)s1 (stereo unspecified)
3. COc1nc(N(C)C)nc(N2CC(=O)N(CCNS(=O)(=O)c3ccc(C)cc3)C2=N)n1
4. Cc1ccc(NC(=O)c2cccs2)cc1S(=O)(=O)N(C)C
5. C/C(=N\NC(=S)NCc1ccccc1)c1ccc(Cl)cc1

Result block:
1. -1
2. -0.99
3. -2.66
4. -1.25
5. -2.64

Provide reported viability increase for each item, in the same order as listed.
1. COc1ccc(-n2ncc3c(N4CCCc5ccccc54)ncnc32)cc1
2. CCc1nnc(NC(=O)C2CCCN2S(=O)(=O)c2ccccc2)s1 (stereo unspecified)
3. O=C(Nc1ccccc1)c1ccc2c(c1)OCO2
4. COc1ccc(C(=O)ON=C2c3ccccc3-c3ccccc32)cc1OC
5. O=C(NCC(F)(F)F)Nc1nnc(C(F)(F)F)s1

Result block:
1. 10.8
2. 12.4
3. -0.11
4. -0.45
5. 7.12

----------
ASSAY SUMMARY: H69AR viability gain despite doxorubicin, primary screen, MRP-1 activator project, H69AR cells, CellTiter-Glo (AID 799)
CONDITION PARAMETERS: viability rescue, at 10 µM
About 840 (0.6%) of roughly 140,000 compounds were called active.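 Rule for the calls: active = viability gain under doxorubicin at or above a set limit, the compound median plus 3 SD (cut at about 4.7% in these data); inactive = the rest.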 This excerpt belongs to a sample that is enriched for actives.
Pick one: active, inactive

| MOLECULE | LABEL VALUE |
| --- | --- |
| Cc1ccc(CC2S/C(=C(/C#N)C(=O)N3CCOCC3)N(c3ccccc3)C2=O)cc1 (stereo unspecified) | active |
| Cc1ccc(S(=O)(=O)Nc2ccc3ncccc3c2)cc1 | active |
| Cc1ccccc1NC(=O)CNc1ccccc1N1CCCCC1 | inactive |
| CC(C)(C)CC(C)(C)NCC(O)COCCOc1ccc(Br)cc1 (stereo unspecified) | inactive |
| Cc1ccn(-c2cccc(-n3ccc(C)n3)n2)n1 | inactive |

Query block: Please state the recorded outcome for this molecule: COc1ccc(CC(=O)N2N=C(C)CC2(O)C(F)(F)F)cc1 (stereo unspecified)
Result block: inactive

----------
ASSAY SUMMARY: H69AR viability gain despite doxorubicin, primary screen, MRP-1 activator project, H69AR cells, CellTiter-Glo (AID 799);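 note: MRP-1 overexpressing cells given doxorubicin 25 µM after compound pretreatment; 18-22 h compound pretreatment then 72 h with doxorubicin before readout; 0% = doxorubicin-only wells and 100% = vehicle-treated cells without doxorubicin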
CONDITION PARAMETERS: viability rescue, at 10 µM
The campaign covered roughly 140,000 compounds. About 840 (0.6%) were called active.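 Rule for the calls: active = viability gain under doxorubicin at or above a set limit, the compound median plus 3 SD (cut at about 4.7% in these data); inactive = the rest.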 The sample holds actives, similar compounds and a random draw of the others, so the mix is not that of the screen.
Pick one: active, inactive

| COMPOUND | LABEL VALUE |
| --- | --- |
| Cc1nnnn1/C(=C\c1ccccc1)C(=O)OCC(=O)N1CC2(C)CC1CC(C)(C)C2 (stereo unspecified) | inactive |
| CC(C)(C)c1ccc(C(=O)CSc2ncn[nH]2)cc1 | active |
| O=C(O)c1cccc(N=NN2CCCCCC2)c1 | inactive |
| CCc1nccn1S(=O)(=O)c1cccc([N+](=O)[O-])c1 | inactive |
| CCN(C(=O)CSc1ncn[nH]1)c1cccc2ccccc12 | inactive |

Query block: Please state the recorded outcome for this compound: `O=c1[nH]cnc2c1c(-c1ccccc1)cn2-c1ccc(F)cc1`
Result block: inactive

Query block: Please state the recorded outcome for this compound: Cc1cc(NC(=O)CCC2COc3ccccc3O2)no1 (stereo unspecified)
Result block: inactive

Query block: Please state the recorded outcome for this compound: `O=C(/C=C/c1ccccc1)Nc1nnc(SCC(=O)c2ccc3ccccc3c2)s1`
Result block: inactive

----------
ASSAY SUMMARY: H69AR viability gain despite doxorubicin, primary screen, MRP-1 activator project, H69AR cells, CellTiter-Glo (AID 799);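 note: MRP-1 overexpressing cells given doxorubicin 25 µM after compound pretreatment; 18-22 h compound pretreatment then 72 h with doxorubicin before readout; 0% = doxorubicin-only wells and 100% = vehicle-treated cells without doxorubicin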
CONDITION PARAMETERS: viability rescue, at 10 µM, hits give high values
In all, about 140,000 compounds went through this assay and about 840 (0.6%) were called active. This is one part of a sample in which actives are shown more often than they occur.
MEASURED METRIC: viability increase (%)
Answers are plain numbers, in %.

| COMPOUND | UNIT | viability increase |
| --- | --- | --- |
| CCc1ccc(NC2Nc3cc(C)nn3S2)cc1 (stereo unspecified) | % | 1.66 |

Provide reported viability increase for each item, in the same order as listed.
1. N#CC1(NC(=O)COc2ccc3oc4ccccc4c3c2)CCCCC1
2. CC(C)CNC(=O)C(=O)Nc1ccc(N(C)C)cc1
3. CCOc1ccc(OCC)c(-c2c(=O)n(OCc3ccc(Cl)cc3)c3ccccc3[n+]2[O-])c1

Result block:
0
0
7.22

Provide reported viability increase for each item, in the same order as listed.
1. O=C(COc1ccc2oc3c(c2c1)CCCC3)Nc1ccccn1
2. NC(=O)COc1ccc2c3c(c(=O)oc2c1)CCCCC3
3. COc1ccc(OC)c(-c2c(=O)n(OCc3ccccc3Br)c3ccccc3[n+]2[O-])c1

Result block:
1. 5.27
2. -0.34
3. -1.16

Provide reported viability increase for each item, in the same order as listed.
1. Clc1ccc(COn2c(-c3ccc(Cl)cc3Cl)nc3ncccc32)cc1
2. Cc1cccc2cc(CN(C(=O)c3cccs3)c3ccccc3)c(=O)[nH]c12
3. Cc1ccc(C2=N/C(=C\c3ccc(OS(=O)(=O)c4ccc(C)cc4)cc3)C(=O)O2)cc1
4. COc1ccc2c(c1)C(SCC(=O)NCc1ccccc1)CC(C)(C)O2 (stereo unspecified)

Result block:
[-3.46, -0.07, -1.26, -1.61]

----------
ASSAY SUMMARY: H69AR viability gain despite doxorubicin, primary screen, MRP-1 activator project, H69AR cells, CellTiter-Glo (AID 799);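 note: MRP-1 overexpressing cells given doxorubicin 25 µM after compound pretreatment; 18-22 h compound pretreatment then 72 h with doxorubicin before readout; 0% = doxorubicin-only wells and 100% = vehicle-treated cells without doxorubicin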
CONDITION PARAMETERS: viability rescue, at 10 µM, hits give high values
In all, about 140,000 compounds went through this assay and about 840 (0.6%) were called active. The list comes from a sample in which actives are over-represented; it also holds close analogues and randomly drawn compounds.
MEASURED METRIC: viability increase (%)
Give bare numbers, in %.

A selection of reference data follows.
| MOLECULE | viability increase / % |
| --- | --- |
| Cc1cccc(CC(=O)N2CCN=C2SCc2ccc([N+](=O)[O-])cc2)c1 | -3.9 |
| COc1cccc(/C=N\NC(=O)C2=NNC(=O)C2C)c1O (centres undefined) | 8.24 |
| COc1ccc(N2CCN(Cc3cc(=O)oc4ccc5ccccc5c34)CC2)cc1 | -1.38 |

Provide reported viability increase for each item, in the same order as listed.
1. Cc1c(Cl)cccc1NC(=O)CC1SC(=NCC2CCCO2)NC1=O (centres undefined)
2. CCCc1ccc(-c2c(C)sc(NC(=O)c3ccnn3C)c2C#N)cc1
3. CCC1(C)Cc2c(sc3[nH]c(=S)n(Cc4ccccc4)c(=O)c23)CO1 (centres undefined)
4. CS(=O)(=O)N(CC(=O)N1CCN(Cc2ccc3c(c2)OCO3)CC1)c1ccc2c(c1)OCO2
5. O=C(Nc1ccn(Cc2ccccc2F)n1)c1ccc(COc2ccc(Cl)cc2Cl)o1
6. Cc1ccc(C(=O)Cc2nnc(C)s2)cc1
7. Cc1ccc(Oc2cc(NC(=O)CCCn3nc(C)c([N+](=O)[O-])c3C)cc([N+](=O)[O-])c2)cc1
8. COCC(C)n1c(C)cc(C(=O)CSc2cc(C)c3ccccc3n2)c1C (centres undefined)

Result block:
1: 2.61; 2: -1.28; 3: -3.87; 4: -1.42; 5: 10.6; 6: -2.89; 7: -2.6; 8: 0.22

Provide reported viability increase for each item, in the same order as listed.
1. O=C(N/N=C\c1ccc(-c2ccc(Cl)c(Cl)c2)o1)C(=O)N1CCCC1
2. Cc1ccc(C(=O)COC(=O)CCCC(=O)NC2CCCCC2)cc1[N+](=O)[O-]
3. COc1cc(C(=S)NC2CCCCC2)ccc1O
4. Cc1cc(C)cc(C(=O)N2CCN=C2SCc2ccc([N+](=O)[O-])cc2)c1

Result block:
[1.06, -1.8, -2.71, -4.17]

Provide reported viability increase for each item, in the same order as listed.
1. Cc1ccc(N2C(=O)C3C(c4ccccc4)(C2=O)C3(c2ccccc2)c2ccccc2)cc1 (centres undefined)
2. CC(C)(C)C1CCC(OC(=O)CCC(=O)Nc2ccccc2)CC1 (centres undefined)
3. CC(=O)NC1C(OCc2ccccc2)OC(COC(C)=O)C(OC(C)=O)C1OC(C)=O (centres undefined)
4. CC(C)(C)N(Cc1ccccc1)C(=O)COC(=O)CCc1c[nH]c2ccccc12

Result block:
[5.37, 3.57, -1.54, -1.32]

Provide reported viability increase for each item, in the same order as listed.
1. O=C(CSCc1ccc(Cl)cc1)N1CCN(Cc2ccc3c(c2)OCO3)CC1
2. COc1ccc(/C=C/C(=O)Nc2c(C)nn(C)c2C)cc1COc1ccc(Br)cc1
3. O=C1CCCC(O)=C1N=Nc1ccc2ncsc2c1
4. COc1cccc(C2SCC(=O)N2c2cccc(C)c2)c1OC (centres undefined)
5. CCOc1ccc(/C=N/OCC(=O)NCc2cccs2)cc1
6. CCN(C(=O)COC(=O)c1c(NC(C)=O)sc(C)c1C)C1CCS(=O)(=O)C1 (centres undefined)
7. COc1cc(C(=O)Nc2cc(C(F)(F)F)ccc2N2CCOCC2)ccc1O

Result block:
5.45
7.14
-2.88
-1.69
0
-2.05
-4.55
